biological target: human Plasma Kallikrein (Homo sapiens (Human), UniProt P03952); experiment: In vitro enzyme inhibition of human plasma kallikrein (PFR-AMC cleavage); type: biochemical; settings: human plasma kallikrein, Pro-Phe-Arg-AMC substrate, 37° C.; read-out: hPK IC50
Sequence (P03952 20-638): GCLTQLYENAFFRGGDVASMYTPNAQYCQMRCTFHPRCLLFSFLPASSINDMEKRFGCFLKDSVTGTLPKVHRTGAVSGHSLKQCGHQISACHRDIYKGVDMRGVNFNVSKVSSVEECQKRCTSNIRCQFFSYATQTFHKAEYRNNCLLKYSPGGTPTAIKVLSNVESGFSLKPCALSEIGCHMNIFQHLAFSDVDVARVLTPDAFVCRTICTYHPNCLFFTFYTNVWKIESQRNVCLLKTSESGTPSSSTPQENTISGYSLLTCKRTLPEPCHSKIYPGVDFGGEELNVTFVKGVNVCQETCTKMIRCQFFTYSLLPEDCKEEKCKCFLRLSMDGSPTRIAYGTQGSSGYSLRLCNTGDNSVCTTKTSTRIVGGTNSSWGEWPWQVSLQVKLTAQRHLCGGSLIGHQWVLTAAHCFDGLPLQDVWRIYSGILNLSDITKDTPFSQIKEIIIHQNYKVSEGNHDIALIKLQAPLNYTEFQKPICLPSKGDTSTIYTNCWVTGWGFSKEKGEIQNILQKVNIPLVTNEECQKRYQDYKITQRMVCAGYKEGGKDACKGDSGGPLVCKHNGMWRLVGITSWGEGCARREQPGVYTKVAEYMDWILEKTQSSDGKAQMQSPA
Reported IC50 values follow for various compounds

Query: Return reported IC50 for target or system human Plasma Kallikrein (Homo sapiens (Human), UniProt P03952), item Cc1cnc2ccc(Cc3cc(C(=O)NCc4ccc5c(N)nccc5c4)ccn3)cc2c1 [Example 142] .
Reply: < 0.1 µM

Query: Output reported IC50 of the compound Cc1cnc2c(C#N)cc(Cc3cc(C(=O)NCc4c(C)cc(N)nc4C)ccn3)cc2c1 [Example 70] on human Plasma Kallikrein (Homo sapiens (Human), UniProt P03952).
Reply: < 0.1 µM

Query: Enter IC50 (test system human Plasma Kallikrein (Homo sapiens (Human), UniProt P03952)) for CC(=O)NCc1ccc2cc(Cc3cc(C(=O)NCc4cc5c(Cl)c[nH]c5cc4F)ccn3)ccc2n1 [Example 9]
Reply: 0.1 to 1 µM

Query: System human Plasma Kallikrein (Homo sapiens (Human), UniProt P03952). Read-out IC50. Item Cc1nc(N)ccc1CNC(=O)c1ccnc(Cc2cc(Cl)c3ncc(Cl)cc3c2)c1 [Example 101] . Report value.
Reply: < 0.1 µM

Query: # lookup: human Plasma Kallikrein (Homo sapiens (Human), UniProt P03952) IC50, key = Cc1cc(N)nc(C)c1CNC(=O)c1ccnc(Cc2cnc3ccc(S(C)(=O)=O)cc3c2)c1 [Example 14]
Reply: 0.1 to 1 µM

Query: Please look at Cc1ccc2nn(Cc3cc(C(=O)NCc4c(C)cc(N)nc4C)ccn3)cc2c1 [Example 107] and tell me its recorded IC50 on human Plasma Kallikrein (Homo sapiens (Human), UniProt P03952).
Reply: 0.1 to 1 µM

Further cases:
Query: Quote human Plasma Kallikrein (Homo sapiens (Human), UniProt P03952) IC50 for entry Cc1cc(C(=O)NCc2c(C)cc(N)nc2C)cc(Cc2ccc3ncc(Cl)cc3c2)n1 [Example 104] .
Reply: < 0.1 µM

Query: State IC50 (human Plasma Kallikrein (Homo sapiens (Human), UniProt P03952)) of Cc1cc2cc(Cc3cc(C(=O)NCc4c(C)cc(N)nc4C)ccn3)ccc2cn1 [Example 145] .
Reply: < 0.1 µM

Query: Print human Plasma Kallikrein (Homo sapiens (Human), UniProt P03952) IC50 for Cc1cnc2c(C(N)=O)cc(Cc3cc(C(=O)NCc4n[nH]c5ccc(Cl)cc45)ccn3)cc2c1 [Example 82] .
Reply: < 0.1 µM

Query: Look up human Plasma Kallikrein (Homo sapiens (Human), UniProt P03952) data: IC50 of Cc1ccc2cc(Cc3cc(C(=O)NCc4ccc(N)nc4C)ccn3)ccc2n1 [Example 112] , then report it.
Reply: < 0.1 µM

====

molecular target: kallikrein (Homo sapiens (Human), UniProt P03952); test: In vitro cellular assay (contact assay): kallikrein activity in ellagic acid-activated human plasma, substrate Z-FR-2-AMC; type: biochemical; conditions: human plasma activated with ellagic acid, Z-FR-2-AMC substrate, 37° C.; read-out: Contact Assay EC50
Sequence (P03952 20-638): as above
Each record here notes measured EC50.

Some solved entries appear below for comparison.
Query: Provide only the value of recorded EC50 for `Cc1cnc2c(C(N)=O)cc(Cc3cc(C(=O)NCc4cnc5[nH]cc(Cl)c5c4)ccn3)cc2c1`
Reply: < 100 nM

Query: Check the records and state EC50 for `Cc1ccc2ncc(Cc3cc(C(=O)NCc4ccc(N)nc4C)ccn3)cc2c1`
Reply: 100 to 1000 nM

Query: Report EC50, nothing else, for this compound: `Cc1cnc2c(S(C)(=O)=O)cc(Cc3cc(C(=O)NCc4cc5cc[nH]c5cc4F)ccn3)cc2c1`
Reply: 100 to 1000 nM

Query: Give reported EC50 value for `NC(=O)c1cc(Cc2cc(C(=O)NCc3cc4cc[nH]c4cc3F)ccn2)cc2cc(Cl)cnc12`
Reply: 100 to 1000 nM

Query: Give recorded EC50. `Cc1cnc2c(C(=O)O)cc(Cc3cc(C(=O)NCc4c(C)cc(N)nc4C)ccn3)cc2c1`
Reply: < 100 nM

Next:
Query: Using the record for `Nc1nccc2cc(CNC(=O)c3ccnc(Cc4ccc5ncc(Cl)cc5c4)c3)ccc12` , state its measured EC50.
Reply: < 100 nM

Query: Please report the measured EC50 for `Cc1cnc2c(S(C)(=O)=O)cc(Cc3cc(C(=O)NCc4ccc5c(N)nccc5c4)ccn3)cc2c1`
Reply: < 100 nM

====

target: kallikrein (Homo sapiens (Human)); test: In vitro cellular assay (contact assay): kallikrein activity in ellagic acid-activated human plasma, substrate Z-FR-2-AMC; assay type: biochemical; conditions: human plasma activated with ellagic acid, Z-FR-2-AMC substrate, 37° C.; read-out: Contact Assay EC50
pEC50: −log10 of the molar value.
Endpoint Label: pEC50

Query: Specify reported pEC50 for the compound shown: Cc1cnc2c(C#N)cc(Cc3cc(C(=O)NCc4c(C)cc(N)nc4C)ccn3)cc2c1 [Example 70]
Reply: > 7.00

Query: Query pEC50 for Cc1cnc2ccc(Cc3cc(C(=O)NCc4cc5c(Cl)c[nH]c5cc4F)ccn3)cc2c1 [Example 143]
Reply: 6.00 to 7.00

Kindly review the next compound as well.
Query: Specify pEC50 for Cc1nc(N)ccc1CNC(=O)c1ccnc(Cc2cc(S(C)(=O)=O)c3ncc(Cl)cc3c2)c1 [Example 69] and stop.
Reply: > 7.00

====

target: human Plasma Kallikrein (Homo sapiens (Human)); assay: In vitro enzyme inhibition of human plasma kallikrein (PFR-AMC cleavage); format: biochemical; conditions: human plasma kallikrein, Pro-Phe-Arg-AMC substrate, 37° C.; read-out: hPK IC50
Endpoint Label: IC50

Below, 10 compounds whose answers are already recorded.
Query: Recall and state the measured IC50 for `Cc1cc(N)ncc1CNC(=O)c1ccnc(Cc2cc(C(N)=O)c3ncc(Cl)cc3c2)c1` .
Reply: < 100 nM

Query: Give reported IC50 value for `O=C(NCc1n[nH]c2ccc(Cl)cc12)c1ccnc(Cc2ccc3ncc(Cl)cc3c2)c1`
Reply: < 100 nM

Query: Hello, please tell me recorded IC50 for this one: `Cc1cnc2c(C#N)cc(Cc3cc(C(=O)NCc4cc5c(Cl)c[nH]c5cc4F)ccn3)cc2c1`
Reply: < 100 nM

Query: Consider the compound `Cc1nc(N)ccc1CNC(=O)c1ccnc(Cc2ccc3ncc(Cl)cc3c2F)c1` . State its measured IC50.
Reply: < 100 nM

Query: Tell me measured IC50 for `Cc1cnc2c(C(N)=O)cc(Cc3cc(C(=O)NCc4c(C)cc(N)nc4C)ccn3)cc2c1` please.
Reply: < 100 nM

Query: Answer with the recorded IC50 of `Cc1cc(N)nc(C)c1CNC(=O)c1ccnc(Cc2ccc3[nH]cc(C)c3c2)c1` only.
Reply: 100 to 1000 nM

Query: Consider the compound `Cc1cc(N)nc(C)c1CNC(=O)c1ccnc(Cc2ccc3ncc(Cl)cc3c2F)c1` . State its measured IC50.
Reply: < 100 nM

Query: Look up and state reported IC50 for `Cc1nc(N)c(C(N)=O)cc1CNC(=O)c1ccnc(Cc2ccc3ncc(Cl)cc3c2)c1`
Reply: > 10000 nM

Query: Determine from records and report IC50 for `Cc1ccc2ncc(Cc3cc(C(=O)NCc4ccc5c(N)nccc5c4)ccn3)cc2c1`
Reply: < 100 nM

Query: Tell me its IC50 given `Cc1cc(N)[n+]([O-])c(C)c1CNC(=O)c1ccnc(Cc2ccc3ncc(Cl)cc3c2)c1` as the entry.
Reply: 100 to 1000 nM

Next:
Query: Note down IC50 recorded for `CS(=O)(=O)c1ccc2ncc(Cc3cc(C(=O)NCc4ccc5c(N)nccc5c4)ccn3)cc2c1`
Reply: 100 to 1000 nM

Query: Indicate the recorded IC50 value for this compound: `Nc1nccc2cc(CNC(=O)c3ccnc(Cc4cnc5ccc(F)cc5n4)c3)ccc12`
Reply: 100 to 1000 nM

Query: Kindly indicate its recorded IC50. Item: `Cc1nc(N)ccc1CNC(=O)c1ccnc(Cc2ccc3ncc(Cl)cc3c2)c1`
Reply: < 100 nM

Query: Answer with reported IC50 of `Cc1cnc2c(S(C)(=O)=O)cc(Cc3cc(C(=O)NCc4c(C)cc(N)nc4C)ccn3)cc2c1`
Reply: < 100 nM

Query: Provide IC50 value for the following compound: `NC(=O)c1cc(Cc2cc(C(=O)NCc3cc4cc[nH]c4cc3F)ccn2)cc2cc(Cl)cnc12`
Reply: < 100 nM

Query: Give the value of IC50 reported for the following: `Cc1cc(N)nc(C)c1CNC(=O)c1ccnc(Cc2cc(S(C)(=O)=O)c3ncc(Cl)cc3c2)c1`
Reply: < 100 nM

====

biological target: human Plasma Kallikrein (Homo sapiens (Human)); experiment: In vitro enzyme inhibition of human plasma kallikrein (PFR-AMC cleavage); assay type: biochemical; conditions: human plasma kallikrein, Pro-Phe-Arg-AMC substrate, 37° C.; read-out: hPK IC50
Form field: IC50 (one value per entry).

Query: Give IC50 for this entry on human Plasma Kallikrein (Homo sapiens (Human)): O=C(NCc1cnc2[nH]cc(Cl)c2c1)c1ccnc(Cc2ccc3ncc(Cl)cc3c2)c1 [Example 38]
Reply: < 100 nM

More entries:
Query: Quote human Plasma Kallikrein (Homo sapiens (Human)) IC50 for entry NC(=O)c1cc(Cc2cc(C(=O)NCc3cc4c(Cl)c[nH]c4cc3F)ccn2)cc2cc(Cl)cnc12 [Example 59] .
Reply: < 100 nM

Query: Fill: IC50 (human Plasma Kallikrein (Homo sapiens (Human))) for this molecule O=C(NCc1cc2c(Cl)c[nH]c2cc1F)c1ccnc(Cc2ccc3ncc(Cl)cc3c2)c1 [Example 33]
Reply: < 100 nM

Query: Check human Plasma Kallikrein (Homo sapiens (Human)) data and give IC50 for Cc1cnc2ccc(Cc3cc(C(=O)NCc4c(C)cc(N)nc4C)ccn3)cc2c1 [Example 144] .
Reply: < 100 nM

Query: Name the value of IC50 reported for Cc1ccc2nc(S(C)(=O)=O)c(Cc3cc(C(=O)NCc4cc5c(Cl)c[nH]c5cc4F)ccn3)cc2c1 [Example 109] when tested on human Plasma Kallikrein (Homo sapiens (Human)).
Reply: 100 to 1000 nM
